Origin of values: patent US6699834B1

System: HIV RNA and protein expression
Test: HIV RNA and protein expression in HIV-1 transgenic mice
Assay type: in vivo
Conditions: pups dosed via mother's milk
Procedure: The HIV-1 transgenic mice used for this study contain 7.4 kb of foreign DNA, including 5.1 kb of the HIV-1 proviral genome deleted in the gag and pol genes and 2.3 kb of vector (Dickie et al., 1991, Virology 185:109-119). […] Gene expression was assayed in total RNA extracted from the skin of Tg26 mice with RNAzol. […] Detection was performed by chemiluminescence (Amersham) and relative mRNA levels determined by densitometry after normalization with GAPDH mRNA levels. […]
Bridge positions count the residues as written; N and C are the ends. Ends that are not written are not given here.
readout.label: HIV-1 gene / protein expression in transgenic mice (in words)

>>> result("3. 45-57: β-hCG amino acids 45-57 (SEQ ID NO:6) (LQGVLPALPQVVC)")
"considerable inhibition"
>>> result("47-55: β-hCG amino acids 47-55 (SEQ ID NO:20) (GVLPALPQV)")
"elicited inhibition"
>>> result("4. Circ 44-57: β-hCG 44-57 with cysteine substituted at position 44, circularized via disulfide bond (SEQ ID NO:26) (CLQGVLPALPQVVC; disulfide 1-14 (inferred))")
"considerable inhibition"
>>> result("32. 48-56: β-hCG amino acids 48-56 (SEQ ID NO:35) (VLPALPQVV)")
"elicited inhibition"

====

System: hematopoietic progenitor cells
Assay: Hematopoietic progenitor clonogenic assays (CFU-GEMM, BFU-e, CFU-GM)
Assay type: cell-based, human
Procedure: The effect of hCG preparations and peptides was assayed on hematopoietic progenitor cells in vitro: Hematopoietic progenitor cells (2×10^5 cell/ml) were isolated from normal bone marrow and cord blood and seeded in methylcellulose. […] The hCG preparations were administered at 200 IU/ml and the β- and α-subunits and peptides were administered at 100 μg/ml. […] Aggregates containing more than 50 cells after 10 days of culture were counted as colonies.
readout.label: promotion of hematopoiesis (in words)

Examples with answers:
>>> result("1. 109-119: β-hCG amino acids 109-119 (SEQ ID NO:7) (TCDDPRFQDSS)")
"directly promoted"
>>> result("47-55: β-hCG amino acids 47-55 (SEQ ID NO:20) (GVLPALPQV)")
"pro-hematopoietic effect"
>>> result("3. 45-57: β-hCG amino acids 45-57 (SEQ ID NO:6) (LQGVLPALPQVVC)")
"directly promoted"
>>> result("6. 45-57::109-119: β-hCG 45-57 linked at the C-terminus to the N-terminus of 109-119 (SEQ ID NO:30) (LQGVLPALPQVVCTCDDPRFQDSS)")
"directly promoted"

Note: attention shifts to another entry.
Annotate the substance 32. 48-56: β-hCG amino acids 48-56 (SEQ ID NO:35) (VLPALPQVV) with its measured promotion of hematopoiesis (in words).
pro-hematopoietic effect
